Values compiled from paper PMC7582373.

Experiment: in vitro
Format: in vitro ADME
Settings: Streptomyces griseus, isolated enzyme pronase, pH 7.3
*1 amine or outer side, *2 acyl side, *3 side chain or, on linkers, in order; H or OH if unused. Where a SMILES comes first, the peptide text is derived from it. Bridges are numbered along the chain shown (N, C = ends). [ ]: non-standard residue; d: D form. X1 = O=C(Cc1ccc(CC(=O)NCC[*:2])cc1)NCC[*:1]; αMeC = C[C@](N)(CS)C(=O)O
Record form. Attribute: remaining at 4 min, 80 µM. Fill in for each entry.

CC(=O)N[C@@H](CCC(=O)O)C(=O)N[C@@H](Cc1c[nH]c2ccccc12)C(=O)N[C@@H](C)C(=O)N[C@@H](CCC(=O)O)C(=O)N[C@H](C(=O)N[C@@H](C)C(=O)N[C@@H](C)C(=O)N[C@@]1(C)CSCCNC(=O)Cc2ccc(cc2)CC(=O)NCCSC[C@@](C)(C(=O)N[C@@H](C)C(=O)N[C@@H](Cc2c[nH]cn2)C(=O)N[C@@H](C)C(N)=O)NC(=O)[C@H](CC(C)C)NC(=O)[C@H](Cc2ccccc2)NC(=O)[C@H](CCCCN)NC1=O)[C@@H](C)O [compound 7] (Ac-EWAETAA[αMeC]KFL[αMeC]AHA-NH2; linker 8-12 via X1) | ~96.6%

Determine from records and report remaining at 4 min, 80 µM for CC(=O)N[C@@H](CCC(=O)O)C(=O)N[C@@H](Cc1c[nH]c2ccccc12)C(=O)N[C@@H](C)C(=O)N[C@@H](CCC(=O)O)C(=O)N[C@H](C(=O)N[C@@H](C)C(=O)N[C@@H](C)C(=O)N[C@H]1CSCCNC(=O)Cc2ccc(cc2)CC(=O)NCCSC[C@@H](C(=O)N[C@@H](C)C(=O)N[C@@H](Cc2c[nH]cn2)C(=O)N[C@@H](C)C(N)=O)NC(=O)[C@H](CC(C)C)NC(=O)[C@H](Cc2ccccc2)NC(=O)[C@H](CCCCN)NC1=O)[C@@H](C)O [compound 8] (Ac-EWAETAACKFLCAHA-NH2; linker 8-12 via X1)
~48.9%

---

Exercise: for every item that follows, state its recorded remaining at 0.125 h, 80 µM.
Assay: in vitro
Assay type: in vitro ADME
Details: Streptomyces griseus, isolated enzyme pronase, pH 7.3
*1 amine or outer side, *2 acyl side, *3 side chain or, on linkers, in order; H or OH if unused. Where a SMILES comes first, the peptide text is derived from it. Bridges are numbered along the chain shown (N, C = ends). [ ]: non-standard residue; d: D form. X1 = O=C(Cc1ccc(CC(=O)NCC[*:2])cc1)NCC[*:1]; αMeC = C[C@](N)(CS)C(=O)O

CC(=O)N[C@@H](CCC(=O)O)C(=O)N[C@@H](Cc1c[nH]c2ccccc12)C(=O)N[C@@H](C)C(=O)N[C@@H](CCC(=O)O)C(=O)N[C@H](C(=O)N[C@@H](C)C(=O)N[C@@H](C)C(=O)N[C@H]1CSCCNC(=O)Cc2ccc(cc2)CC(=O)NCCSC[C@@H](C(=O)N[C@@H](C)C(=O)N[C@@H](Cc2c[nH]cn2)C(=O)N[C@@H](C)C(N)=O)NC(=O)[C@H](CC(C)C)NC(=O)[C@H](Cc2ccccc2)NC(=O)[C@H](CCCCN)NC1=O)[C@@H](C)O [compound 8] (Ac-EWAETAACKFLCAHA-NH2; linker 8-12 via X1) | ~35.7%

Now examine the next entry.
Let me know recorded remaining at 0.125 h, 80 µM for CC(=O)N[C@@H](CCC(=O)O)C(=O)N[C@@H](Cc1c[nH]c2ccccc12)C(=O)N[C@@H](C)C(=O)N[C@@H](CCC(=O)O)C(=O)N[C@H](C(=O)N[C@@H](C)C(=O)N[C@@H](C)C(=O)N[C@@]1(C)CSCCNC(=O)Cc2ccc(cc2)CC(=O)NCCSC[C@@](C)(C(=O)N[C@@H](C)C(=O)N[C@@H](Cc2c[nH]cn2)C(=O)N[C@@H](C)C(N)=O)NC(=O)[C@H](CC(C)C)NC(=O)[C@H](Cc2ccccc2)NC(=O)[C@H](CCCCN)NC1=O)[C@@H](C)O [compound 7] (Ac-EWAETAA[αMeC]KFL[αMeC]AHA-NH2; linker 8-12 via X1) , thanks.
~93.3%

---

Assay: in vitro
Format: in vitro ADME
Conditions: Streptomyces griseus, isolated enzyme pronase, pH 7.3
*1 amine or outer side, *2 acyl side, *3 side chain or, on linkers, in order; H or OH if unused. Where a SMILES comes first, the peptide text is derived from it. Bridges are numbered along the chain shown (N, C = ends). [ ]: non-standard residue; d: D form. X1 = O=C(Cc1ccc(CC(=O)NCC[*:2])cc1)NCC[*:1]; αMeC = C[C@](N)(CS)C(=O)O
Record form. Attribute: remaining at 0.25 h, 80 µM. Fill in for each entry.

CC(=O)N[C@@H](CCC(=O)O)C(=O)N[C@@H](Cc1c[nH]c2ccccc12)C(=O)N[C@@H](C)C(=O)N[C@@H](CCC(=O)O)C(=O)N[C@H](C(=O)N[C@@H](C)C(=O)N[C@@H](C)C(=O)N[C@H]1CSCCNC(=O)Cc2ccc(cc2)CC(=O)NCCSC[C@@H](C(=O)N[C@@H](C)C(=O)N[C@@H](Cc2c[nH]cn2)C(=O)N[C@@H](C)C(N)=O)NC(=O)[C@H](CC(C)C)NC(=O)[C@H](Cc2ccccc2)NC(=O)[C@H](CCCCN)NC1=O)[C@@H](C)O [compound 8] (Ac-EWAETAACKFLCAHA-NH2; linker 8-12 via X1) | ~21.6%

Now let's try a different one.
Using known records, supply remaining at 0.25 h, 80 µM for CC(=O)N[C@@H](CCC(=O)O)C(=O)N[C@@H](Cc1c[nH]c2ccccc12)C(=O)N[C@@H](C)C(=O)N[C@@H](CCC(=O)O)C(=O)N[C@H](C(=O)N[C@@H](C)C(=O)N[C@@H](C)C(=O)N[C@@]1(C)CSCCNC(=O)Cc2ccc(cc2)CC(=O)NCCSC[C@@](C)(C(=O)N[C@@H](C)C(=O)N[C@@H](Cc2c[nH]cn2)C(=O)N[C@@H](C)C(N)=O)NC(=O)[C@H](CC(C)C)NC(=O)[C@H](Cc2ccccc2)NC(=O)[C@H](CCCCN)NC1=O)[C@@H](C)O [compound 7] (Ac-EWAETAA[αMeC]KFL[αMeC]AHA-NH2; linker 8-12 via X1)
~81.3%
